- tested target: CLDN3/4 endogenously expressed on LS513 and MCF7 cells
- test description: FACS dose curve, labelled mAb, LS513 cells
pEC50 reference
# pEC50 is unitless: minus log10 of the molar concentration; print number only

Look over these answered cases.
[
  {
    "binder": "AB4 (antibody, V domains shown) VH: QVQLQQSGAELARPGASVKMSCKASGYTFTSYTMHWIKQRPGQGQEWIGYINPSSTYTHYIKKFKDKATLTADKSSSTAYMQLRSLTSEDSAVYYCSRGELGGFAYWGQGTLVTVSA VL: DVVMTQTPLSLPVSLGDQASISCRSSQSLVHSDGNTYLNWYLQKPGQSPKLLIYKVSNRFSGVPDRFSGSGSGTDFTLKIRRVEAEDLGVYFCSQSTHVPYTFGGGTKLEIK",
    "measured endpoint": "pEC50",
    "reported": 6.14
  },
  {
    "binder": "AB2 (antibody, V domains shown) VH: EVKLEESGGGLVQPGGSMKLSCVASGFTFSDYWMNWVRQSPEKGLEWVAQIRLKSDNYATHYAESVKGRFTISRDDSKRSVYLQMNNLRAEDTGTYYCNDGPPSGCWGQGTTLIVSS VL: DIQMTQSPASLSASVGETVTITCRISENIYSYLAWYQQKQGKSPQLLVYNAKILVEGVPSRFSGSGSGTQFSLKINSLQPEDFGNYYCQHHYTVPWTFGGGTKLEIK",
    "measured endpoint": "pEC50",
    "reported": 5.30
  },
  {
    "binder": "AB6 (antibody, V domains shown) VH: DVQLQESGPGLVKSSQSLSLTCSVTGYSITSGYYWKWIRQFPGNKLEWMGYISYDGGINYNPSLKNRISITRDTSKNQFFLKLNSVTTEDTAKYYCARFGKGAMDYWGQGTSVTVSS VL: AIVMFQSPSSLVVSAGEKVTMSCKSSQSLLNSRTRKNYLAWYQQKPGQSPKLLIYWASTRESGVPDRFTGSGSGTDFTLTISSVQAEDLAVYYCKQSYYLYTFGGGTKLEIK",
    "measured endpoint": "pEC50",
    "reported": 6.88
  },
  {
    "binder": "AB5 (antibody, V domains shown) VH: EVQLQQSGPELVKPGASVKMSCKASGYIFTHYIMHWVKQKPGQGLEWIGCINPYNDGTKYNEKFKGKATLTSDKSSSTAYMELSSLTSEDSAVYYCARYYGYPYYSMDYWGQGTSVTVSS VL: DVLMTQTPLSLPVSLGDQPSISCRSSQSIVHSNGNTYLDWYLQKPGQSPKLLIYKVSNRFSGVPDRFSGSGSGTDFTLKISRVEAEDLGVYYCFQGSHVPFTFGSGTRLEIK",
    "measured endpoint": "pEC50",
    "reported": 6.11
  }
]

Shifting focus to the binder that follows.
Task: State the recorded pEC50 for this entry: AB9 (antibody, V domains shown) VH: EVQLQQSGPELVKPGASVKMSCKASGYRFTDYNMHWVKQSHGKSLEWIGYINPNNGGTNYNQNFKGKATLTVNKSSSTAYMELRSLTSEDSAAYYCARDYLYFFDCWGQGTTLTVSS VL: DIQMTQSPASQSASLGESVTITCLASQTIGTWLAWYQQKPGKSPQLLIYAAASLADGVPSRFSGSGSGTRFSFKISSLQAEDFVSYYCQQLYSIPRTFGGGTKLEIK
Result: 5.98
